- assayedTarget: human urinary kallikrein (Homo sapiens)
- Construct: dialyzed or gel-filtered human urine in the general A1 assay
- Sequence (P06870 25-262): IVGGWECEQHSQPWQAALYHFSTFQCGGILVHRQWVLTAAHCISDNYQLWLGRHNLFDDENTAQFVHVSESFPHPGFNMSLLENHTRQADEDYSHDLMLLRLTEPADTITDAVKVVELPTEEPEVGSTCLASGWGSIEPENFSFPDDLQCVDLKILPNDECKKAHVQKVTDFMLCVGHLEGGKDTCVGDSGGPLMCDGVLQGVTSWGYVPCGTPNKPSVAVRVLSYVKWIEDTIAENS
- assayName: Relative activity of halogenated (4-iodoanilide) substrates, spectrophotometric standard assay
- Assay type: biochemical
- measurementConditions: 150 nmol substrate in 0.7 ml 0.05 tris-HCl, pH 8.1, 37° C.
Where a SMILES comes first, the peptide text is derived from it. The star is where a group is joined. X1 = Ic1ccc(N*)cc1
This section presents compounds with their documented Rate of Hydrolysis values.
Record the value in nmol/min/mg enzyme, omitting the unit from your answer.

Examples with answers:
compound	assayedTarget	Rate of Hydrolysis / nmol/min/mg enzyme
N=C(N)NCCC[C@H](NC(=O)[C@H](Cc1ccccc1)NC(=O)[C@@H]1CCCN1)C(=O)Nc1ccc(I)cc1 [Pro--Phe--Arg--4-iodoanilide]	human urinary kallikrein (Homo sapiens)	0.73
N=C(N)NCCC[C@H](NC(=O)[C@H](Cc1ccccc1)NC(=O)[C@@H]1CCCN1C(=O)[C@H](CO)NC(=O)[C@@H](N)Cc1ccccc1)C(=O)Nc1ccc(I)cc1 [Phe--Ser--Pro--Phe--Arg--4-iodoanilide] (H-FSPFR-X1)	human urinary kallikrein (Homo sapiens)	1.12

Any idea what Rate of Hydrolysis was measured for N=C(N)NCCC[C@H](NC(=O)[C@H](Cc1ccccc1)NC(=O)[C@@H]1CCCN1C(=O)[C@@H](N)CO)C(=O)Nc1ccc(I)cc1 [Ser--Pro--Phe--Arg--4-iodoanilide] (H-SPFR-X1) ?
0.62
